Experiment: Plasma pharmacokinetics and metabolism of lipoic acid after oral administration of 1 gram R-lipoic acid to a healthy volunteer (HPLC/ECD)
Type: in vivo, human
Details: human, in vivo, po
Outcome measure: Cmax (ng/mL)

> print(dat)
                           compound  reported.value
1  O=C(O)CCCC[C@@H]1CCSS1 (racemic)            1150

* * *

Experiment: Plasma pharmacokinetics and metabolism of lipoic acid after oral administration of 1 gram R-lipoic acid to a healthy volunteer (HPLC/ECD)
Type: in vivo, human
Details: human, in vivo, po, time of (first) maximum in plasma concentration
Outcome measure: Tmax

> print(dat)
                           compound  reported.value
1  O=C(O)CCCC[C@@H]1CCSS1 (racemic)         ~45 min

* * *

Experiment: Plasma pharmacokinetics and metabolism of lipoic acid after oral administration of 1 gram R-lipoic acid to a healthy volunteer (HPLC/ECD)
Type: in vivo, human
Details: human, in vivo, po, time of maximum plasma concentration
Outcome measure: Tmax (h)

> print(dat)
                           compound  outcome.measure  reported.value
1  O=C(O)CCCC[C@@H]1CCSS1 (racemic)             Tmax            1.53
